# test: Solubility in a physiologically acceptable buffer (sodium phosphate buffer, pH 7.4)
# Format: physicochemical
# condition.parameters: aqueous buffer; sodium phosphate buffer at pH 7.4; parent compound; read-out: solubility
readout: solubility

// query // solubility lookup, key: "COc1ccc2c(c1O)CCN(C=O)[C@@H]2c1cc(OC)c(OC)c(OC)c1"
// result ~20 µg/mL

====

# Test system: phospho-MAPK (Erk1/2) in DU-145 cells
# test: Inhibition of IGF-1 stimulated phosphorylation of MAPK in DU-145 cells (immunoblotting)
# Format: cell-based
# condition.parameters: Homo sapiens, 0.25 h, incubated over night in serum free medium, IGF-1 (50 nM) stimulation 15 minutes, read-out: IC50 inhibition of phosphorylation of MAPK (Erk1/2)
readout: pIC50
// pIC50 is dimensionless: -log10 of concentration (M)

// query // pIC50 lookup, key: "COc1ccc2c(c1O)CCN(C=O)[C@@H]2c1cc(OC)c(OC)c(OC)c1"
// result 7.30

====

# measurement.target: alkaline phosphatase (Bos taurus)
# Construct: purchased Sigma-Aldrich type VII S
# Sequence (P19111 20-506 limits assumed): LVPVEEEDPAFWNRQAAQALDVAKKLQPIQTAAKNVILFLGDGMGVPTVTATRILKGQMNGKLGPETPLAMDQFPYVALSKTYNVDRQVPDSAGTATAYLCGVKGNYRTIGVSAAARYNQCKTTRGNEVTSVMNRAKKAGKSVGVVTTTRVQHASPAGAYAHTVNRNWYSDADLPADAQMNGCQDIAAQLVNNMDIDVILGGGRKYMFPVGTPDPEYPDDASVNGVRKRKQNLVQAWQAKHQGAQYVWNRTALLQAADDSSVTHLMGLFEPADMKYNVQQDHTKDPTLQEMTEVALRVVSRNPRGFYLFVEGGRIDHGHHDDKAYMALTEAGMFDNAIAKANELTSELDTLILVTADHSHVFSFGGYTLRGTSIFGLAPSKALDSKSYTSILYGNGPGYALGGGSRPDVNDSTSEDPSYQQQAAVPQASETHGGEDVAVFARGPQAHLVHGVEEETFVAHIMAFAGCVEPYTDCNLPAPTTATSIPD
# test: Dephosphorylation by alkaline phosphatase in vitro
# Format: in vitro ADME
# condition.parameters: bovine, bovine alkaline phosphatase (type VII S, Sigma-Aldrich); phosphatase concentration of 10 units/ml, 37° C., pH 7.4; read-out: half-life time of dephosphorylation
readout: half-life (min)
Lab book: enter the figure in min, no units written.

// query // half-life lookup, key: "COc1cc([C@@H]2c3ccc(OC)c(OP(=O)(O)O)c3CCN2C=O)cc(OC)c1OC"
// result 8
